The reported numbers originate from patent US11840574B2.

Target: Human DR5 (Homo sapiens, UniProt O14763)
Assay: Binding affinity of antibody to human DR5 (BIAcore, CM5 chip)
Details: equilibrium dissociation constant, Human DR5
Procedure: In order to measure affinity, human DR5 was coupled to carboxylated dextran biosensor chips (CM5, GE) according to the manufacturer's instruction. Association and dissociation rates were assessed by injecting IgG proteins that were 2-fold serially diluted to 5 nM, 2.5 nM, 1.25 nM, 0.625 nM, 0.313 nM, and 0.156 nM. […]
Hi! Just check whether Kd is below 0.01 nM. Below gives MET, equal or above gives NOT MET.

molecule	assigned_class
DA14: humanized or deimmunized variant of parental clone D0; CDRs SEQ ID NO 1, 2, 7 / 4, 12, 13 (antibody, V domains shown) VH: EVQLVESGGGLVQPGGSLRLSCAASGFTFSSFNMLWVRQAPGKGLEWVAGIGKSDRYTGYGSAVKGRFTISRDTSKNTAYLQMNSLRAEDTAVYYCSRDAGSGCGSGGWTGACIDTWGQGTLVTVSS VL: DIQMTQSPSSLSASVGDRVTITCSGGDSYAGSYYYGWYQQKPGKAPKTLIYNNNNKAKGVPSRFSGSRSGTDFTLTISSLQPEDFATYYCGSRDSSYVGIFGQGTKVEIK	NOT MET
DA18: humanized or deimmunized variant of parental clone D0; CDRs SEQ ID NO 1, 2, 7 / 4, 10, 15 (antibody, V domains shown) VH: EVQLVESGGGLVQPGGSLRLSCAASGFTFSSFNMLWVRQAPGKGLEWVAGIGKSDRYTGYGSAVKGRFTISRDDSKSTVYLQMNSLRAEDTAVYYCVRDAGSGCGSGGWTGACIDTWGQGTLVTVSS VL: DIQMTQSPSSLSASVGDRVTITCSGGDSYAGSYYYGWYQQKPGKAPKTLIYNNNNRPSGVPSRFSGSRSGTDFTLTISSLQPEDFATYYCGSRDSDGGGRFGQGTKVEIK	NOT MET
DA10: humanized or deimmunized variant of parental clone D0; CDRs SEQ ID NO 1, 2, 7 / 4, 10, 13 (antibody, V domains shown) VH: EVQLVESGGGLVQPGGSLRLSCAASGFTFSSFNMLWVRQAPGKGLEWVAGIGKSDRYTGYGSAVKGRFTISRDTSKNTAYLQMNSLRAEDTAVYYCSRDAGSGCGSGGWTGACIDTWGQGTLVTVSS VL: DIQMTQSPSSLSASVGDRVTITCSGGDSYAGSYYYGWYQQKPGKAPKTLIYNNNNRPSGVPSRFSGSRSGTDFTLTISSLQPEDFATYYCGSRDSSYVGIFGQGTKVEIK	MET
DA20: humanized or deimmunized variant of parental clone D0; CDRs SEQ ID NO 1, 2, 7 / 4, 10, 14 (antibody, V domains shown) VH: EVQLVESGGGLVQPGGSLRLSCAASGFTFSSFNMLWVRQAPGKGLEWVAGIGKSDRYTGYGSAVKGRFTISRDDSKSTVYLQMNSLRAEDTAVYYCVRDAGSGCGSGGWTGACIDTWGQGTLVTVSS VL: DIQMTQSPSSLSASVGDRVTITCSGGDSYAGSYYYGWYQQKPGKAPKTLIYNNNNRPSGVPSRFSGSRSGTDFTLTISSLQPEDFATYYCGSRDSAGMGAFGQGTKVEIK	NOT MET
DA7: humanized or deimmunized variant of parental clone D0; CDRs SEQ ID NO 1, 2, 7 / 4, 10, 13 (antibody, V domains shown) VH: EVQLVESGGGLVQPGGSLRLSCAASGFTFSSFNMLWVRQAPGKGLEWVAGIGKSDRYTGYGSAVKGRFTISRDDSKSTVYLQMNSLRAEDTAVYYCSRDAGSGCGSGGWTGACIDTWGQGTLVTVSS VL: DIQMTQSPSSLSASVGDRVTITCSGGDSYAGSYYYGWYQQKPGKAPKTLIYNNNNRPSGVPSRFSGSTSGTDFTLTISSLQPEDFATYYCGSRDSSYVGIFGQGTKVEIK	MET
DA23: humanized or deimmunized variant of parental clone D0; CDRs SEQ ID NO 1, 2, 9 / 4, 10, 13 (antibody, V domains shown) VH: EVQLVESGGGLVQPGGSLRLSCAASGFTFSSFNMLWVRQAPGKGLEWVAGIGKSDRYTGYGSAVKGRFTISRDDSKSTVYLQMNSLRAEDTAVYYCVRDAGSPCGKGGWTGACIDTWGQGTLVTVSS VL: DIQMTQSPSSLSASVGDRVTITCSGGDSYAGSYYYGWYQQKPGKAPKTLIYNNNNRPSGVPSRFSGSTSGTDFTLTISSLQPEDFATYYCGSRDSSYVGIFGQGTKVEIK	NOT MET
DA13: humanized or deimmunized variant of parental clone D0; CDRs SEQ ID NO 1, 2, 7 / 4, 10, 14 (antibody, V domains shown) VH: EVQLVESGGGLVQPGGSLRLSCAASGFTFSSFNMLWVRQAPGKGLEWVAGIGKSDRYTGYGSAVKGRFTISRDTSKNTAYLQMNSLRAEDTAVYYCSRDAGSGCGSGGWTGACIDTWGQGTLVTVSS VL: DIQMTQSPSSLSASVGDRVTITCSGGDSYAGSYYYGWYQQKPGKAPKTLIYNNNNRPSGVPSRFSGSRSGTDFTLTISSLQPEDFATYYCGSRDSAGMGAFGQGTKVEIK	NOT MET
DA24: humanized or deimmunized variant of parental clone D0; CDRs SEQ ID NO 1, 2, 7 / 4, 10, 13 (antibody, V domains shown) VH: AVTLDESGGGLQTPGGGLSLVCKGSGFTFSSFNMLWVRQAPGKGLEWVAGIGKSDRYTGYGSAVKGRATISRDDGQSTVRLQLNNLRAEDTGTYYCVKDAGSGCGSGGWTGACIDTWGHGTEVIVSS VL: LTQPSSVSANLGGTVEITCSGGDSYAGSYYYGWYQQKAPGSAPVTVIYNNNNRPSNIPSRFSGSTSGSTATLTITGVQAEDEATYYCGSRDSSYVGIFGAGTTLTVL	MET
